# Test system: Fibroblast
# EXPERIMENT: Multiplex assay against human fibroblast
# Assay type: toxicity, cell-based
# SETTINGS: 12 h, 1 µM, compound concentration 1 uM, replicate 1
OBSERVATION TYPE: Population Healthy Nuclei (%)
Write the answer as a number in %, unit excluded.

O=C(Nc1cc(-c2ccccc2)nn1-c1ccccc1F)c1ccc([N+](=O)[O-])cc1 = 71

Query string: Report Population Healthy Nuclei (%) from Fibroblast testing of COc1cc2nc(N3CCN(C(=O)c4ccco4)CC3)nc(N)c2cc1OC.Cl [PRAZOSIN HYDROCHLORIDE]
Result string: 57

Query string: Report Population Healthy Nuclei (%) from Fibroblast testing of CN(C)C(=O)Cn1cc(-c2ccc(-c3nnc4ccccn34)cc2)cn1
Result string: 60

Query string: Report Population Healthy Nuclei (%) from Fibroblast testing of CCC(=O)OCC(=O)[C@@]1(OC(=O)CC)[C@@H](C)C[C@H]2[C@@H]3CCC4=CC(=O)C=C[C@]4(C)[C@@]3(Cl)[C@@H](O)C[C@@]21C [BECLOMETHASONE DIPROPIONATE]
Result string: 73

Query string: Report Population Healthy Nuclei (%) from Fibroblast testing of CCn1c(-c2nc3cc(C(=O)N4CCCC(N)C4)ccc3n2C)cc2ccccc21.Cl (stereo not drawn)
Result string: 67

Query string: Report Population Healthy Nuclei (%) from Fibroblast testing of N[C@](CC1c2ccccc2Oc2ccccc21)(C(=O)O)[C@H]1C[C@@H]1C(=O)O
Result string: 73

Query string: Report Population Healthy Nuclei (%) from Fibroblast testing of C=CCN1C[C@H](C(=O)N(CCCN(C)C)C(=O)NCC)C[C@@H]2c3cccc4[nH]cc(c34)C[C@H]21 [CABERGOLINE]
Result string: 78

Query string: Report Population Healthy Nuclei (%) from Fibroblast testing of COC(c1ccccc1)(c1ccccc1)[C@H](Oc1nc(C)cc(C)n1)C(=O)O [AMBRISENTAN]
Result string: 66

====

# Test system: U2OS
# EXPERIMENT: Multiplex assay against U2OS
# Type: toxicity, cell-based
# SETTINGS: human, 12 h, 1 µM, compound concentration 1 uM, replicate 2
Non-standard residues stand in square brackets, D forms with d. Residues, ends and D or L forms follow the SMILES beside them.
Total Cell Count: recorded values

Examples with answers:
S=C(NCCCc1c[nH]cn1)NCCCN(Cc1ccc(Cl)c(Cl)c1)c1ccc(Br)cn1 = 93
Cn1cc(C(=O)OCC2CCN(CCNS(C)(=O)=O)CC2)c2ccccc21 = 110
N[C@](CC1c2ccccc2Oc2ccccc21)(C(=O)O)[C@H]1C[C@@H]1C(=O)O = 114

// moving on: another record for Total Cell Count
Query string: Report Total Cell Count from U2OS testing of CC(C)C[C@@H]1NC(=O)[C@@H](C(C)C)NC(=O)[C@@H]2CCCN2C(=O)[C@@H](CC(=O)O)NC(=O)[C@@H](Cc2c[nH]c3ccccc23)NC1=O [BQ-123] (cyclo(L[dW][dD]P[dV]))
Result string: 118

====

Population Fragmented Nuclei (%): recorded values
# Tested on: Fibroblast
# EXPERIMENT: Multiplex assay against human fibroblast
# Format: toxicity, cell-based
# SETTINGS: 24 h, 10 µM, compound concentration 10 uM, replicate 1
Write the answer as a number in %, unit excluded.

CCn1c(-c2nc3cc(C(=O)N4CCCC(N)C4)ccc3n2C)cc2ccccc21.Cl (stereo not given) = 22
CCCCC[C@H](O)/C=C/[C@H]1[C@H](O)CC(=O)[C@@H]1CCCCCCC(=O)O = 14
Cc1sc2c(c1C)C(c1ccc(Cl)cc1)=N[C@H](CC(=O)OC(C)(C)C)c1nnc(C)n1-2 = 16
CN(C)C(=O)Cn1cc(-c2ccc(-c3nnc4ccccn34)cc2)cn1 = 10
COc1cc2nc(N3CCN(C(=O)COc4c(OC)cccc4C(C)C)CC3)nc(N)c2cc1OC.Cl.Cl = 13

Query string: Report Population Fragmented Nuclei (%) from Fibroblast testing of S=C(NCCCc1c[nH]cn1)NCCCN(Cc1ccc(Cl)c(Cl)c1)c1ccc(Br)cn1
Result string: 22

Query string: Report Population Fragmented Nuclei (%) from Fibroblast testing of CN1CCC(C(=O)c2cccc(NC(=O)c3c(F)cc(F)cc3F)n2)CC1
Result string: 13

Query string: Report Population Fragmented Nuclei (%) from Fibroblast testing of CCc1nn2c(C)cc(C)nc2c1Cc1ccc(-c2nnc(C3CCNCC3)o2)cc1
Result string: 17

Query string: Report Population Fragmented Nuclei (%) from Fibroblast testing of COc1cc2nc(N3CCN(C(=O)c4ccco4)CC3)nc(N)c2cc1OC.Cl [PRAZOSIN HYDROCHLORIDE]
Result string: 23

Query string: Report Population Fragmented Nuclei (%) from Fibroblast testing of Cc1cc(O)c(-c2ccc([C@@H](C)CN(C)C)cc2)c2c1[nH]c(=O)c1sccc12
Result string: 11
